tested on: L. aethiopica promastigotes; test: Primary antipromastigote assay (resazurin based); format: cell-based; conditions: Leishmania aethiopica, 72 h, at 1 μM, hit map sheet without colour categories, negative values kept, read-out: Percentage of inhibition against Leishmania aethiopica promastigotes
Decision: inhibition at 1 µM >= 80% yields MET, all other cases yield NOT MET.

{"columns": ["Compound", "Assay System", "Answer Label"],
 "data": [
  ["CN1CCC(NCc2cccc(-c3ccc(S(=O)(=O)NCc4ccccc4)cc3)c2)CC1", "L. aethiopica promastigotes", "MET"],
  ["C[C@@H]1[C@H](O)[C@@H](C)/C=C/C=C/C=C/C=C/C=C/C=C/C=C/[C@H](O[C@@H]2O[C@H](C)[C@@H](O)[C@H](N)[C@@H]2O)C[C@@H]2O[C@](O)(C[C@@H](O)C[C@@H](O)[C@H](O)CC[C@@H](O)C[C@@H](O)CC(=O)O[C@H]1C)C[C@H](O)[C@H]2C(=O)O [Amphotericin B, reference compound]", "L. aethiopica promastigotes", "NOT MET"],
  ["CCCCCCCCCCCCCCCCOP(=O)([O-])OCC[N+](C)(C)C [Miltefosine, reference compound]", "L. aethiopica promastigotes", "NOT MET"],
  ["O=C(Nc1cccc(Cl)c1)c1cnc(N2CCN(c3ccncc3)CC2)c(Cl)c1", "L. aethiopica promastigotes", "MET"]
]}

###

experiment: THP-1 cell cytotoxicity assay (resazurin); type: cell-based; conditions: human
Reported Endpoint: CC50 at 72 h

{"columns": ["Molecule", "Assay Value"],
 "data": [
  ["Cc1cccc(C(=O)Nc2ccnc(N(C)C3CCN(CC(C)C)CC3)c2)c1 [MMV024829]", "> 25 µM"]
]}

###

inhibition at 1 µM listing for selected compounds.
test system: L. aethiopica promastigotes; assay: Primary antipromastigote assay (resazurin based); assay type: cell-based; details: Leishmania aethiopica, 72 h, at 1 μM, hit map sheet without colour categories, negative values kept, read-out: Percentage of inhibition against Leishmania aethiopica promastigotes

{"columns": ["Compound", "inhibition at 1 µM, %"],
 "data": [
  ["N=C(N)c1ccc(OCCCCCOc2ccc(C(=N)N)cc2)cc1 [Pentamidine, reference compound]", 64.7],
  ["Cc1cccc(C(=O)Nc2ccnc(N(C)C3CCN(CC(C)C)CC3)c2)c1 [MMV024829]", 82.4],
  ["CN1CCN(CCCOc2ncc(Nc3ncc(-c4ccc(C(F)(F)F)c(F)c4)nc3C(N)=O)cn2)CC1 [MMV687812]", 72.9],
  ["COc1cncc(-c2cncc(N3CCN(c4ccncc4)CC3)n2)c1 [MMV085071]", 76.1],
  ["O=C(Nc1ccc(N2CCNCC2)cc1)c1ccn2ncc(-c3cccc(Cl)c3)c2n1 [MMV022478]", 98.9]
]}
